Molecular target: Aurora kinase A (Homo sapiens)
Sequence (O14965 whole entry): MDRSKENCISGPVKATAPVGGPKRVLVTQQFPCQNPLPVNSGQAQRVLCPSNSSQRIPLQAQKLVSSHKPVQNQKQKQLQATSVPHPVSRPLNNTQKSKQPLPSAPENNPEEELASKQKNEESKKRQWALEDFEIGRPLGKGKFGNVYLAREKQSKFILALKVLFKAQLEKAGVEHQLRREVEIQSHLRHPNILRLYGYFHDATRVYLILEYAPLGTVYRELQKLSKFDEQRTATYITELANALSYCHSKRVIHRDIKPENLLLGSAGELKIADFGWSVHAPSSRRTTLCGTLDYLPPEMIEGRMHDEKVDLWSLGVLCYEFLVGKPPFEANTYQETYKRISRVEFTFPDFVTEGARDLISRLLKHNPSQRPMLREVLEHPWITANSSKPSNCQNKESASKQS
Several publications report IC50 on Aurora kinase A (Homo sapiens); those values are gathered here.
We label by threshold. Values of IC50 strictly beneath 900 nM are satisfied. Values of 900 nM and up are not satisfied.

Exercise: Consider `CC(=O)N1Cc2n[nH]c(NC(=O)c3ccccc3)c2C1` . Does its IC50 lie strictly below 900 nM?
Solution: not satisfied

Exercise: What about `CNc1ccc(Nc2ccnc3[nH]c(=O)c4ccccc4c23)cc1` ?
Solution: satisfied

Exercise: What about `O=C1c2nc3cc(-c4ccco4)nn3c(O)c2CN1Cc1ccccc1` ?
Solution: not satisfied

Exercise: What about `COc1cc2nccc(Oc3ccc4c(C(N)=O)cccc4c3)c2cc1C(N)=O` ?
Solution: not satisfied

Exercise: What about `O=C(Nc1ncc(CCNc2ncnc3ccsc23)s1)Nc1ccccc1Cl` ?
Solution: satisfied

Exercise: What about `COc1cc2ncnc(Nc3ccc(-c4nc5ccccc5s4)cc3O)c2cc1OCCCN1CCN(C)CC1` ?
Solution: satisfied

Exercise: What about `Cc1cn2c(-c3cn[nH]c3)cnc2c(Nc2cc(Cc3ccncc3)ns2)n1` ?
Solution: satisfied

Exercise: What about `c1ccc(-c2oc3ncnc(NCCCn4ccnc4)c3c2-c2ccccc2)cc1` ?
Solution: not satisfied

Exercise: What about `Cc1cn2c(-c3cn[nH]c3)cnc2c(Nc2cc(Cc3cccnc3)ns2)n1` ?
Solution: satisfied

Exercise: What about `CNC(=O)c1cc(Nc2ccc(-c3nc4ccccc4s3)cc2)ccn1` ?
Solution: not satisfied

Exercise: What about `CC(C)C(=O)N1Cc2n[nH]c(NC(=O)c3ccc4c(c3)OCO4)c2C1` ?
Solution: satisfied

Exercise: What about `CN(C)c1ccc(-c2nc3ncc(Cl)c(Cl)c3[nH]2)cc1` ?
Solution: satisfied

Exercise: What about `COc1cc2nccc(Oc3ccc4c(C(=O)NCC(F)(F)F)cccc4c3)c2cc1OC` ?
Solution: not satisfied

Exercise: What about `CS(=O)(=O)N(c1ccc(Nc2ncc3cnn(C4CCCCCC4)c3n2)nc1)S(C)(=O)=O` ?
Solution: not satisfied

Exercise: What about `CS(=O)(=O)N(CCCO)c1ccc(Nc2ncc3cnn(C4CCCCCC4)c3n2)cc1` ?
Solution: satisfied

Exercise: What about `O=C(NCc1ccc(-c2cc(NC(=O)c3ccc(OCCN4CCCC4)cc3)[nH]n2)cc1)OCc1ccccc1` ?
Solution: not satisfied

Exercise: What about Cc1cn2c(-c3cnn(CC(=O)Nc4cccc(F)n4)c3)cnc2c(Nc2cc(CN3CCCC(C)C3)ns2)n1 (stereo not given) ?
Solution: satisfied

Exercise: What about `Cc1cn2c(-c3cn[nH]c3)cnc2c(Nc2cc(CNCC(F)(F)C(F)(F)F)ns2)n1.Cl` ?
Solution: satisfied

Exercise: What about `CCOC(=O)N1CCN(Cc2cc(Nc3nc(C)cn4c(-c5cn[nH]c5)cnc34)sn2)CC1` ?
Solution: satisfied

Exercise: What about Cc1cn2c(-c3cnn(CC(=O)Nc4nccs4)c3)cnc2c(Nc2cc(CN3CCCC(C)C3)ns2)n1 (stereo not given) ?
Solution: satisfied
